Entries and their Population Pyknosed Nuclei (%) values follow.
System: Fibroblast
ASSAY_INFO: Multiplex assay against human fibroblast
Format: toxicity, cell-based
ASSAY_CONTEXT: 48 h, 10 µM, compound concentration 10 uM, replicate 1

{"MOLECULE": "CC(C)COc1ccc(CNC(=O)N(Cc2ccc(F)cc2)C2CCN(C)CC2)cc1", "Population Pyknosed Nuclei (%)": 17}
{"MOLECULE": "CC[C@@H](C)Nc1nc(C)nc2c(-c3ccc(OC)nc3C)c(C)nn12", "Population Pyknosed Nuclei (%)": 22}
{"MOLECULE": "CCCCC1=NC2(CCCC2)C(=O)N1Cc1ccc(-c2ccccc2-c2nnn[nH]2)cc1", "Population Pyknosed Nuclei (%)": 18}
{"MOLECULE": "N#Cc1cc(F)cc(-c2nc(-c3ccc(F)cn3)no2)c1", "Population Pyknosed Nuclei (%)": 16}
{"MOLECULE": "CN(C)C(=O)Cn1cc(-c2ccc(-c3cncc4ccccc34)cc2)cn1", "Population Pyknosed Nuclei (%)": 20}
{"MOLECULE": "CCc1cc2cc(NS(=O)(=O)c3ccc(C#N)cc3)ccc2n(CC)c1=O", "Population Pyknosed Nuclei (%)": 19}
{"MOLECULE": "Cc1sc2c(c1C)C(c1ccc(Cl)cc1)=N[C@@H](CC(=O)NCCCCCCCCNC(=O)COc1cccc3c1C(=O)N(C1CCC(=O)NC1=O)C3=O)c1nnc(C)n1-2 (some centres undefined)", "Population Pyknosed Nuclei (%)": 38}
{"MOLECULE": "C[C@H](N)COC(=O)[C@@H](CCCCN)NC(=O)Cc1c(-c2ccc3ccccc3c2)[nH]c2c1ccc1ccccc12", "Population Pyknosed Nuclei (%)": 15}
{"MOLECULE": "CC(C)c1noc(N2CCC(COc3ccc(-c4ccc(S(C)(=O)=O)cc4)nc3)CC2)n1", "Population Pyknosed Nuclei (%)": 20}
